Please go through the items and note down their pIC50.
molecular target: Human immunodeficiency virus type 1 reverse transcriptase (Human immunodeficiency virus 1, UniProt Q72547, G190A); assay: Inhibition of HIV1 reverse transcriptase G190A mutant expressed in Escherichia coli BL21 (DE3) using [alpha-32P]dATP after 30 mins by liquid scintillation counting
pIC50: −log10 of the molar value.

Prompt line: Look up pIC50 for this compound: Cc1ccc(Cn2c(=O)ccn(C3C=CC(OC(=O)c4ccccc4)C3)c2=O)cc1 (racemic)
Response line: < 4.30

Prompt line: Look up pIC50 for this compound: Cc1cc(C)cc(Cn2c(=O)ccn(C3C=CC(OC(=O)c4ccccc4)C3)c2=O)c1 (racemic)
Response line: < 4.30

Prompt line: Look up pIC50 for this compound: O=C(OC1C=CC(n2ccc(=O)n(Cc3ccccc3)c2=O)C1)c1ccccc1 (racemic)
Response line: < 4.30

====

target: Human immunodeficiency virus type 1 reverse transcriptase (Human immunodeficiency virus 1, UniProt Q72547, K103N/Y181C); experiment: Inhibition of HIV1 reverse transcriptase K103N/Y181C mutant expressed in Escherichia coli BL21 (DE3) using [alpha-32P]dATP after 30 mins by liquid scintillation counting
Please go through the items and note down their IC50.

Prompt line: Look up IC50 for this compound: Cc1cc(C)cc(Cn2c(=O)ccn(C3C=CC(OC(=O)c4ccccc4)C3)c2=O)c1 (racemic)
Response line: > 50 µM

Prompt line: Look up IC50 for this compound: Cc1ccc(Cn2c(=O)ccn(C3C=CC(OC(=O)c4ccccc4)C3)c2=O)cc1 (racemic)
Response line: > 50 µM

Prompt line: Look up IC50 for this compound: O=C(OC1C=CC(n2ccc(=O)n(Cc3ccccc3)c2=O)C1)c1ccccc1 (racemic)
Response line: > 50 µM

====

pIC50: −log10 of the molar value.
Observed pIC50 values for Human immunodeficiency virus type 1 reverse transcriptase (Human immunodeficiency virus 1) are listed in what follows.

Prompt line: Look up pIC50 for this compound: Cc1cc(=O)[nH]c(=O)n1C1C=CC(OC(=O)c2ccccc2)C1 (racemic)
Response line: < 4.00

Prompt line: Look up pIC50 for this compound: Cc1ccc(Cn2c(=O)cc(C)n(C3C=CC(OC(=O)c4ccccc4)C3)c2=O)cc1 (racemic)
Response line: < 4.30

Prompt line: Look up pIC50 for this compound: Cc1ccc(Cn2c(=O)ccn(C3C=CC(OC(=O)c4ccccc4)C3)c2=O)cc1 (racemic)
Response line: 4.73

Prompt line: Look up pIC50 for this compound: O=c1ccn(C2C=CC(O)C2)c(=O)n1Cc1ccccc1 (racemic)
Response line: < 4.00

Prompt line: Look up pIC50 for this compound: O=C(OC1C=CC(n2ccc(=O)[nH]c2=O)C1)c1ccccc1 (racemic)
Response line: < 4.00

Prompt line: Look up pIC50 for this compound: Cc1ccc(Cn2c(=O)ccn(C3C=CC(OC(=O)c4ccccc4)C3)c2=O)c(C)c1 (racemic)
Response line: < 4.30

Prompt line: Look up pIC50 for this compound: O=C(OC1C=CC(n2ccc(=O)n(Cc3cc(F)cc(F)c3)c2=O)C1)c1ccccc1 (racemic)
Response line: < 4.30

Prompt line: Look up pIC50 for this compound: Cc1cc(C)cc(Cn2c(=O)ccn(C3C=CC(OC(=O)c4ccccc4)C3)c2=O)c1 (racemic)
Response line: < 4.30

Prompt line: Look up pIC50 for this compound: O=C(OC1C=CC(n2ccc(=O)n(Cc3ccccc3)c2=O)C1)c1ccccc1 (racemic)
Response line: 4.87
